Test system: RPMI-8226 leukemia
Assay: NCI-60 one-dose screen, 48 h (100 = growth as untreated, 0 = no growth, -100 = all killed)
Conditions: 10 µM unless noted
Compounds without any hit were thinned out: in the full panel of roughly 83,000, 20% have a hit.
# Lookup of reported growth keyed by entry
Give the number; % is assumed, so skip it.

Illustrative cases are given below, each with its answer.
molecule=Cn1ccnc1C(=O)/C=C/c1ccc(CNC(=O)c2ccc(F)cc2)cc1 outcome_measure=growth value_observed=13
molecule=CCCCNNC(=O)c1ccc(-c2cccc(F)c2F)cc1 outcome_measure=growth value_observed=5.02
molecule=COc1ccc([C@@H]2[C@@H](O)C(=O)N2c2cc(OC)c(OC)c(OC)c2)cc1F outcome_measure=growth value_observed=21.5

Prompt: GET /values?readout=growth&item= `O=C(CCn1c[n+](CC(=O)c2ccc(-c3ccccc3)cc2)c2ccccc21)Nc1cccc2cccnc12`
Completion: 3.25

Prompt: GET /values?readout=growth&item= `NS(=O)(=O)c1ccc(Nc2nc(N/N=C/CCc3ccccc3)nc(Nc3ccccc3)n2)cc1`
Completion: 101

Prompt: GET /values?readout=growth&item= `C=C(C=O)[C@@H]1CC[C@]2(C)[C@H](CC=C3[C@H]4[C@@H](C)[C@H](C)CC[C@]4(C(=O)OC)CC[C@]32C)[C@@]1(C)CCC#N`
Completion: -11.9

Prompt: GET /values?readout=growth&item= `N/C(=N\C(N)=N\c1nc2ccccc2s1)c1ccc(C(F)(F)F)cc1`
Completion: 46.5

Prompt: GET /values?readout=growth&item= CCc1ccc(SC2c3ccc(N(CC)CC)cc3Oc3nc(N)c(C#N)c(N)c32)cc1 (centres undefined)
Completion: -29.6

Prompt: GET /values?readout=growth&item= `N#Cc1cccc(CN2CCC3=C(C2)C(=O)N(Cc2ccc(Cl)cc2)C2=NCCN23)c1`
Completion: 17

###

System: RXF 393 renal
Assay: NCI-60 one-dose screen, 48 h
Conditions: 10 µM unless noted
The panel holds about 83,000 compounds, 20% with a hit somewhere; the sample as a whole holds those more often. Active and inactive are the calls of the source. Rule for the calls: active = growth percent below 10; inactive = the rest.
Outcome (select one): active, inactive

compound="O=C(c1ccc(Cl)cc1)C1[C@H](c2ccc(Cl)cc2)[C@@H](c2ccccc2)NC12C(=O)Nc1ccccc12 (stereo partly drawn)" system_tested="RXF 393 renal" cat=inactive
compound=Cc1cc2ncc(-c3cc4ccccc4c(N4CCN(C)CC4)n3)nc2cc1C system_tested="RXF 393 renal" cat=active
compound=CC1(C)[C@@H](O)CC[C@]2(C)[C@H]3CC[C@@H]4[C@H]5[C@H](C(=O)/C=C\c6ccccn6)CC[C@]5(O)CC[C@@]4(C)[C@]3(C)CC[C@@H]12 system_tested="RXF 393 renal" cat=active

Prompt: In this assay, the call recorded for `O=C(Nc1ccc(N=Cc2c(O)[nH]c3ccccc23)cc1)Nc1nccs1` was what?
Completion: active

Prompt: In this assay, the call recorded for COc1ccc(C2CC(c3cccc(Nc4nc(Cl)nc5cc(OC)c(OC)cc45)c3)=Nc3c(N)nc(N)nc3N2)cc1 (stereo not drawn) was what?
Completion: inactive

###

Tested on: IGROV1 ovarian
Experiment: NCI-60 one-dose screen, 48 h (100 = growth as untreated, 0 = no growth, -100 = all killed)
Details: 10 µM unless noted
Compounds without any hit were thinned out: in the full panel of roughly 83,000, 20% have a hit.
# strict inequality: growth < 30% yields criterion met, everything else yields criterion not met

compound="CNc1ncc2cc(-c3ccc(-c4ncccc4F)cc3Cl)c(=O)n(CC3OCC(N)CO3)c2n1 (stereo not drawn)" system_tested="IGROV1 ovarian" cat="criterion met"

Okay, now this compound:
Prompt: Does this compound meet the criterion growth < 30%? `O=C(CNc1nc(-c2cccc([N+](=O)[O-])c2)cs1)Nc1cccc([N+](=O)[O-])c1`
Completion: criterion met

###

Tested on: ACHN renal
Assay: NCI-60 one-dose screen, 48 h
Conditions: 10 µM unless noted
About 83,000 compounds went through this panel and 20% of them were active in at least one assay; those are over-represented in the sample as a whole. Calls of active or inactive are those of the source. How the source made its calls: active means growth percent below 10; inactive means the rest.
Outcome (select one): active, inactive

compound=CCCCCc1ccc(S(=O)(=O)Nc2cccc(-c3csc(NC(=O)CCCCCN4CCN(CCO)CC4)n3)c2)cc1 cat=inactive
compound=COc1ccc(S(=O)(=O)NCCCNc2nccc(-c3cn(C(C)(C)C)nc3-c3ccc(Cl)c(OC)c3)n2)cc1 cat=inactive
compound="CCO/C=N/C1=C(C#N)C(c2ccc(OC)cc2)c2sc3c(CC)cccc3c2O1 (stereo not given)" cat=inactive
compound="CC(=O)C1=C(C)NC(NN)=NC1c1cccc(Cl)c1 (stereo not given)" cat=inactive
compound=O=C(Cn1cc[n+](CC(=O)c2ccc(-c3ccccc3)cc2)c1)Nc1cccc2cccnc12 cat=inactive
compound=CC(C)(C)n1cc(-c2ccnc(NCCCNS(=O)(=O)c3cccc(F)c3)n2)c(-c2ccc(Cl)c(O)c2)n1 cat=inactive
compound=N#C/C(=C\c1ccc(-c2ccc(Cl)cc2Cl)o1)c1ccc(F)cc1 cat=inactive
compound=NC/C(=C/F)COc1ccc2nc(NCc3cccnc3)oc2c1 cat=inactive
compound=C#CCC#CCN1CCC[C@H]1C(=O)NCC(=O)OC cat=inactive
compound="CCO/C=N/C1=C(C#N)C(c2ccc(Cl)cc2)c2sc3c(CC)cccc3c2O1 (stereo not given)" cat=inactive

Okay, now this compound:
Prompt: In this assay, the call recorded for Nc1nc(N)c2c(n1)NC(c1ccc(C(F)(F)F)cc1)CC(c1ccc(Nc3nc(NCCO)nc(N4CCOCC4)n3)cc1)=N2 (stereo not given) was what?
Completion: inactive

###

Tested on: TK-10 renal
Experiment: NCI-60 one-dose screen, 48 h
Conditions: 10 µM unless noted
This is part of a sample that, as a whole, favours compounds with a hit. Of some 83,000 tested, about 20% had one in any assay. The source made the active and inactive calls. Rule for the calls: active = growth percent below 10; inactive = the rest.
Outcome (select one): 1 for active, -1 for inactive

Prompt: In this assay, the call recorded for `C#CCn1cccc1CNc1ccc(OC)cc1` was what?
Completion: 1

Prompt: In this assay, the call recorded for `O=C(NNc1nc2cc(F)c(F)cc2n2cccc12)c1cnccn1` was what?
Completion: -1

Prompt: In this assay, the call recorded for `C=C(C)[C@@H]1CC[C@]2(C(=O)NCCCCCN(CCC#N)CCC#N)CC[C@]3(C)[C@H](CC[C@@H]4[C@@]5(C)CCC(=O)C(C)(C)[C@@H]5CC[C@]43C)[C@@H]12` was what?
Completion: -1

Prompt: In this assay, the call recorded for `Nn1c(N/N=C/c2nc3ccccc3s2)n[nH]c1=S` was what?
Completion: -1

Prompt: In this assay, the call recorded for `CCCCCc1ccc(S(=O)(=O)Nc2cccc(-c3csc(NC(=O)CN4CCN(CCO)CC4)n3)c2)cc1` was what?
Completion: -1

Prompt: In this assay, the call recorded for `O=C(Cn1cc(-c2ccccc2)nn1)Nc1nc(-c2ccc(Cl)cc2)cs1` was what?
Completion: -1

###

Tested on: TK-10 renal
Experiment: NCI-60 one-dose screen, 48 h
Conditions: 10 µM unless noted
About 83,000 compounds went through this panel and 20% of them were active in at least one assay; those are over-represented in the sample as a whole. Active and inactive are the calls of the source. Rule for the calls: active = growth percent below 10; inactive = the rest.
Outcome (select one): y (active), n (inactive)

molecule=N/C(=N\C(N)=N\c1nc2ccccc2s1)c1ccncc1Cl cat=n
molecule=CCN(CC)c1ccc(NC2=C(Cl)C(=O)c3nc(C)ccc3C2=O)cc1 cat=n
molecule="COc1c(N2CC3CCCNC3C2)c(F)cc2c(=O)c(C(=O)N/N=C/c3ccc(F)cc3)cn(C3CC3)c12 (centres undefined)" cat=n
molecule=CN(Cc1ccccc1)S(=O)(=O)/N=C1\NC(=O)NC1=C(Cl)Cl cat=n
molecule=CCCCCc1ccc(S(=O)(=O)Nc2cccc(-c3csc(NC(=O)CCCCCN4CCN(CCO)CC4)n3)c2)cc1 cat=n
molecule=CCN(CC)c1cn(-c2ccc(S(N)(=O)=O)cc2)nn1 cat=n

Prompt: In this assay, the call recorded for `CCCCCc1ccc(S(=O)(=O)Nc2cccc(-c3csc(NC(=O)CNCCN(C)C)n3)c2)cc1` was what?
Completion: n

Prompt: In this assay, the call recorded for `O=S(=O)(NCCNc1nccc(-n2cnc3ccccc32)n1)c1ccc(Br)cc1` was what?
Completion: n

Prompt: In this assay, the call recorded for Cc1cc(C(NC(=O)CCCCCNc2cccc3c2C(=O)N(C2CCC(=O)NC2=O)C3=O)c2ccc3c(c2)OC(F)(F)O3)c(O)c2ncccc12 (centres undefined) was what?
Completion: n

###

Tested on: K-562 leukemia
Assay: NCI-60 one-dose screen, 48 h (100 = growth as untreated, 0 = no growth, -100 = all killed)
Settings: 10 µM unless noted
Compounds without any hit were thinned out: in the full panel of roughly 83,000, 20% have a hit.
# strict inequality: growth < 50% yields 1 (yes), everything else yields 0 (no)

compound="COc1cc2c(cc1OC)C(Sc1ccc(F)cc1)c1c(nc(N)c(C#N)c1N)O2 (stereo not given)" cat="1 (yes)"

Prompt: Does this compound meet the criterion growth < 50%? `C=C(C=O)[C@@H]1CC[C@]2(C)[C@H](CC=C3[C@H]4[C@@H](C)[C@H](C)CC[C@]4(C(=O)OC)CC[C@]32C)[C@@]1(C)CCC#N`
Completion: 1 (yes)

Prompt: Does this compound meet the criterion growth < 50%? `N#Cc1cccc(/C(N)=N/C(N)=N/c2nc3ccccc3s2)c1`
Completion: 1 (yes)

Prompt: Does this compound meet the criterion growth < 50%? `N/C(=N\C(N)=N\c1nc2ccccc2s1)c1ccc2ccccc2c1`
Completion: 0 (no)

Prompt: Does this compound meet the criterion growth < 50%? `CN1CCC(n2cc(Nc3ncc4c(=O)n(-c5c(Cl)cccc5Cl)cc(Br)c4n3)cn2)CC1`
Completion: 1 (yes)

Prompt: Does this compound meet the criterion growth < 50%? `O=C(CCn1c[n+](CC(=O)c2ccc(F)cc2)c2ccccc21)Nc1cccc2cccnc12`
Completion: 0 (no)
